Cited source: the supplement of paper PMC7125110

For each of the variants below, state its self-cleavage kobs at 160 uM GlcN6P.
B1: glmS ribozyme (parent)
chain: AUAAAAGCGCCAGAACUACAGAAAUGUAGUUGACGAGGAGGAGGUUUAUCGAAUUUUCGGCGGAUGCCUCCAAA

- Variants of: B1
- TEST_DESCRIPTION: self-cleavage kobs at 160 uM GlcN6P; higher = faster cleavage; RNA array
- EXPERIMENTAL_CONTEXT: with glucosamine-6-phosphate
Fewer inactive variants are shown than the library holds.

// batch mode: one self-cleavage kobs at 160 uM GlcN6P value per listed entry
1. C16U G41A
2. A15C A53G
3. C34U G41C G66U
4. A33C G44C U57A A64U
5. A36C U46G A52G G60U

1. 0.000153 s⁻¹
2. 0.000515 s⁻¹
3. < 1e-05 s⁻¹
4. < 1e-05 s⁻¹
5. < 1e-05 s⁻¹

Hi, could you look up self-cleavage kobs at 160 uM GlcN6P for each item in my list?
1. C16A G29C
2. G44A G60A
3. G29C C67A
4. A6U G37C C71U
5. A14G U56A C67A

1: 0.000215 s⁻¹; 2: < 1e-05 s⁻¹; 3: 5.79e-05 s⁻¹; 4: < 1e-05 s⁻¹; 5: 0.00127 s⁻¹

// self-cleavage kobs at 160 uM GlcN6P lookup, variant = A15C A33U , result: < 1e-05 s⁻¹
